# System: HL60 (Human promylocyteic leukemia)
# assay method text: LDH assay cytotoxicity, HL60
# Assay type: cell-based
# run parameters: HL-60, read-out: IC50 HL60
property: pIC50
pIC50 here: minus log base 10 of the concentration, concentration in moles per litre.

Item `COc1ccccc1N=NNc1ccccc1OC` ; assay system HL60 (Human promylocyteic leukemia); pIC50 reported as 5.89

Assay HL60 (Human promylocyteic leukemia), sample `c1ccc(N=NNc2ccccc2)cc1` , pIC50 read: 5.47

Reported HL60 (Human promylocyteic leukemia) pIC50 for item `CCOc1ccccc1N=NNc1ccccc1OCC` was 5.58

Form field pIC50 for item Cn1nnc2c(C(N)=O)ncn2c1=O [TMZ, Temozolomide, reference compound] on HL60 (Human promylocyteic leukemia): 5.45

Form field pIC50 for item `O=[N+]([O-])c1ccc(N=NNc2ccccc2O)cc1` on HL60 (Human promylocyteic leukemia): 5.87

Case `O=[N+]([O-])c1ccc(N=NNc2cccc(O)c2)cc1` , HL60 (Human promylocyteic leukemia), pIC50 recorded as 5.64

Reading of pIC50 for `O=[N+]([O-])c1ccc(N=NNCCO)cc1` with HL60 (Human promylocyteic leukemia): 5.55

Measured pIC50 (HL60 (Human promylocyteic leukemia)), entry `N#Cc1ccccc1N=NNc1ccccc1C#N` : 5.87

----------
# Tested on: MCF7 (Human breast adenocarcinoma)
# assay method text: LDH assay cytotoxicity, MCF7
# Format: cell-based
# run parameters: Homo sapiens, MCF7, read-out: IC50 MCF7
property: IC50 (nM)
# number only, unit nM dropped from output

IC50 reading for `c1ccc(N=NNc2ccccc2)cc1` : 1570
